Please provide measured Lung, accumulated activity for the entries that follow.
tested on: KB tumor-bearing athymic nude mice; assay: Biodistribution of 177Lu-RedFols in KB tumor-bearing mice; type: in vivo, mouse; details: 1 h p.i.
Give bare numbers, in % IA/g.

In the examples that follow, each entry is paired with its recorded Lung, accumulated activity.
MOLECULE	TARGET_DESC	Lung, accumulated activity, % IA/g
CN1c2c(nc(N)[nH]c2=O)NCC1CNc1ccc(C(=O)NC(CCC(=O)NC(CCCCNC(=O)CN2CCN(CC(=O)[O-])CCN(CC(=O)[O-])CCN(CC(=O)[O-])CC2)C(=O)NC(CCCCNC(=O)c2ccc(CNC(=O)CCCCc3ccc(I)cc3)cc2)C(=O)O)C(=O)O)cc1.[177Lu+3] (stereo not drawn) [[^177Lu]Lu-6S-RedFol-25]	KB tumor-bearing athymic nude mice	5.5
CN1c2c(nc(N)[nH]c2=O)NC[C@H]1CNc1ccc(C(=O)N[C@@H](CCC(=O)N[C@@H](CCCCNC(=O)CN2CCN(CC(=O)O)CCN(CC(=O)O)CCN(CC(=O)O)CC2)C(=O)N[C@@H](CCCCNC(=O)c2ccc(CNC(=O)CCCc3ccc(I)cc3)cc2)C(=O)O)C(=O)O)cc1 [[^177Lu]Lu-6R-RedFol-3, metal not drawn]	KB tumor-bearing athymic nude mice	11

Given the molecule CN1c2c(nc(N)[nH]c2=O)NCC1CNc1ccc(C(=O)NC(CCC(=O)NC(CCCCNC(=O)CN2CCN(CC(=O)[O-])CCN(CC(=O)[O-])CCN(CC(=O)[O-])CC2)C(=O)NC(CCCCNC(=O)c2ccc(CNC(=O)CCCc3ccc(I)cc3)cc2)C(=O)O)C(=O)O)cc1.[177Lu+3] (stereo not drawn) [[^177Lu]Lu-6S-RedFol-3] , what is its reported Lung, accumulated activity? 9.3

---

tested on: KB tumor-bearing athymic nude mice; experiment: Biodistribution of 177Lu-RedFols in KB tumor-bearing mice; assay type: in vivo, mouse; details: 24 h p.i.
EXPERIMENTAL_READOUT: Tumor-to-liver ratio
Numbers only.

Below: 4 compounds and their reported Tumor-to-liver ratio.
COMPOUND	Tumor-to-liver ratio
CN1c2c(nc(N)[nH]c2=O)NCC1CNc1ccc(C(=O)NC(CCC(=O)NC(CCCCNC(=O)CN2CCN(CC(=O)[O-])CCN(CC(=O)[O-])CCN(CC(=O)[O-])CC2)C(=O)NC(CCCCNC(=O)c2ccc(CNC(=O)CCCCc3ccc(I)cc3)cc2)C(=O)O)C(=O)O)cc1.[177Lu+3] (stereo not drawn) [[^177Lu]Lu-6S-RedFol-25]	67
CN1c2c(nc(N)[nH]c2=O)NC[C@H]1CNc1ccc(C(=O)N[C@@H](CCC(=O)N[C@@H](CCCCNC(=O)CN2CCN(CC(=O)O)CCN(CC(=O)O)CCN(CC(=O)O)CC2)C(=O)N[C@@H](CCCCNC(=O)c2ccc(CNC(=O)CCCCc3ccc(I)cc3)cc2)C(=O)O)C(=O)O)cc1 [[^177Lu]Lu-6R-RedFol-25, metal not drawn]	23
CN1c2c(nc(N)[nH]c2=O)NC[C@H]1CNc1ccc(C(=O)N[C@@H](CCC(=O)N[C@@H](CCCCNC(=O)CN2CCN(CC(=O)O)CCN(CC(=O)O)CCN(CC(=O)O)CC2)C(=O)N[C@@H](CCCCNC(=O)c2ccc(CNC(=O)CCCc3ccc(I)cc3)cc2)C(=O)O)C(=O)O)cc1 [[^177Lu]Lu-6R-RedFol-3, metal not drawn]	21
CN1c2c(nc(N)[nH]c2=O)NCC1CNc1ccc(C(=O)NC(CCC(=O)NC(CCCCNC(=O)CN2CCN(CC(=O)[O-])CCN(CC(=O)[O-])CCN(CC(=O)[O-])CC2)C(=O)NC(CCCCNC(=O)c2ccc(CNC(=O)CCCc3ccc(I)cc3)cc2)C(=O)O)C(=O)O)cc1.[177Lu+3] (stereo not drawn) [[^177Lu]Lu-6S-RedFol-3]	24

Now look at this entry.
Any idea what Tumor-to-liver ratio was measured for CN1c2c(nc(N)[nH]c2=O)NC[C@H]1CNc1ccc(C(=O)N[C@@H](CCC(=O)N[C@@H](CCCCNC(=O)CN2CCN(CC(=O)O)CCN(CC(=O)O)CCN(CC(=O)O)CC2)C(=O)N[C@@H](CCCCNC(=O)CCCCc2ccc(I)cc2)C(=O)O)C(=O)O)cc1 [[^177Lu]Lu-6R-RedFol-24, metal not drawn] ? 28

---

Test system: KB tumor-bearing athymic nude mice
Test: Biodistribution of 177Lu-RedFols in KB tumor-bearing mice
Type: in vivo, mouse
Conditions: 1 h p.i.
Description: Athymic nude mice (Crl:CD1-Foxn^nu) were kept on a folate-deficient rodent diet (ssniff Spezialdiäten GmbH, Soest, Germany) for at least one week prior to inoculation with the tumor cells. Biodistribution studies were performed approx. two weeks after subcutaneous inoculation with KB tumor cells (5 × 10^6 in 100 μL PBS) (Supplementary Materials Section S12). […] Data were presented as the average ± SD of n = 3−4 mice. […]
EXPERIMENTAL_READOUT: Bone, accumulated activity
The reply must contain the numeric value and, after it, the unit.

Examples with answers:
MOLECULE	Bone, accumulated activity
CN1c2c(nc(N)[nH]c2=O)NC[C@H]1CNc1ccc(C(=O)N[C@@H](CCC(=O)N[C@@H](CCCCNC(=O)CN2CCN(CC(=O)O)CCN(CC(=O)O)CCN(CC(=O)O)CC2)C(=O)N[C@@H](CCCCNC(=O)c2ccc(CNC(=O)CCCc3ccc(I)cc3)cc2)C(=O)O)C(=O)O)cc1 [[^177Lu]Lu-6R-RedFol-3, metal not drawn]	1.8 ± 0.5 % IA/g
CN1c2c(nc(N)[nH]c2=O)NC[C@H]1CNc1ccc(C(=O)N[C@@H](CCC(=O)N[C@@H](CCCCNC(=O)CN2CCN(CC(=O)O)CCN(CC(=O)O)CCN(CC(=O)O)CC2)C(=O)N[C@@H](CCCCNC(=O)c2ccc(CNC(=O)CCCCc3ccc(I)cc3)cc2)C(=O)O)C(=O)O)cc1 [[^177Lu]Lu-6R-RedFol-25, metal not drawn]	1.5 ± 0.3 % IA/g
CN1c2c(nc(N)[nH]c2=O)NC[C@H]1CNc1ccc(C(=O)N[C@@H](CCC(=O)N[C@@H](CCCCNC(=O)CN2CCN(CC(=O)O)CCN(CC(=O)O)CCN(CC(=O)O)CC2)C(=O)N[C@@H](CCCCNC(=O)CCCCc2ccc(I)cc2)C(=O)O)C(=O)O)cc1 [[^177Lu]Lu-6R-RedFol-24, metal not drawn]	1.2 ± 0.1 % IA/g
CN1c2c(nc(N)[nH]c2=O)NCC1CNc1ccc(C(=O)NC(CCC(=O)NC(CCCCNC(=O)CN2CCN(CC(=O)[O-])CCN(CC(=O)[O-])CCN(CC(=O)[O-])CC2)C(=O)NC(CCCCNC(=O)c2ccc(CNC(=O)CCCc3ccc(I)cc3)cc2)C(=O)O)C(=O)O)cc1.[177Lu+3] (stereo not drawn) [[^177Lu]Lu-6S-RedFol-3]	1.9 ± 0.1 % IA/g

So what's the measured Bone, accumulated activity for this one? CN1c2c(nc(N)[nH]c2=O)NCC1CNc1ccc(C(=O)NC(CCC(=O)NC(CCCCNC(=O)CN2CCN(CC(=O)[O-])CCN(CC(=O)[O-])CCN(CC(=O)[O-])CC2)C(=O)NC(CCCCNC(=O)c2ccc(CNC(=O)CCCCc3ccc(I)cc3)cc2)C(=O)O)C(=O)O)cc1.[177Lu+3] (stereo not drawn) [[^177Lu]Lu-6S-RedFol-25] 1.4 ± 0.2 % IA/g

---

Give Stomach, accumulated activity for every item shown.
system: KB tumor-bearing athymic nude mice; test: Biodistribution of 177Lu-RedFols in KB tumor-bearing mice; assay type: in vivo, mouse; settings: 24 h p.i.
One number for each entry, in % IA/g.

Known Stomach, accumulated activity results, listed for orientation:
COMPOUND	TARGET_DESC	SCALE_UNIT	RECORDED_NUMBER
CN1c2c(nc(N)[nH]c2=O)NC[C@H]1CNc1ccc(C(=O)N[C@@H](CCC(=O)N[C@@H](CCCCNC(=O)CN2CCN(CC(=O)O)CCN(CC(=O)O)CCN(CC(=O)O)CC2)C(=O)N[C@@H](CCCCNC(=O)c2ccc(CNC(=O)CCCCc3ccc(I)cc3)cc2)C(=O)O)C(=O)O)cc1 [[^177Lu]Lu-6R-RedFol-25, metal not drawn]	KB tumor-bearing athymic nude mice	% IA/g	0.44
CN1c2c(nc(N)[nH]c2=O)NCC1CNc1ccc(C(=O)NC(CCC(=O)NC(CCCCNC(=O)CN2CCN(CC(=O)[O-])CCN(CC(=O)[O-])CCN(CC(=O)[O-])CC2)C(=O)NC(CCCCNC(=O)c2ccc(CNC(=O)CCCCc3ccc(I)cc3)cc2)C(=O)O)C(=O)O)cc1.[177Lu+3] (stereo not drawn) [[^177Lu]Lu-6S-RedFol-25]	KB tumor-bearing athymic nude mice	% IA/g	0.13
CN1c2c(nc(N)[nH]c2=O)NC[C@H]1CNc1ccc(C(=O)N[C@@H](CCC(=O)N[C@@H](CCCCNC(=O)CN2CCN(CC(=O)O)CCN(CC(=O)O)CCN(CC(=O)O)CC2)C(=O)N[C@@H](CCCCNC(=O)CCCCc2ccc(I)cc2)C(=O)O)C(=O)O)cc1 [[^177Lu]Lu-6R-RedFol-24, metal not drawn]	KB tumor-bearing athymic nude mice	% IA/g	0.54
CN1c2c(nc(N)[nH]c2=O)NC[C@H]1CNc1ccc(C(=O)N[C@@H](CCC(=O)N[C@@H](CCCCNC(=O)CN2CCN(CC(=O)O)CCN(CC(=O)O)CCN(CC(=O)O)CC2)C(=O)N[C@@H](CCCCNC(=O)c2ccc(CNC(=O)CCCc3ccc(I)cc3)cc2)C(=O)O)C(=O)O)cc1 [[^177Lu]Lu-6R-RedFol-3, metal not drawn]	KB tumor-bearing athymic nude mice	% IA/g	1.1

Now for another entry.
Notebook: pull reported Stomach, accumulated activity for KB tumor-bearing athymic nude mice, entry CN1c2c(nc(N)[nH]c2=O)NCC1CNc1ccc(C(=O)NC(CCC(=O)NC(CCCCNC(=O)CN2CCN(CC(=O)[O-])CCN(CC(=O)[O-])CCN(CC(=O)[O-])CC2)C(=O)NC(CCCCNC(=O)c2ccc(CNC(=O)CCCc3ccc(I)cc3)cc2)C(=O)O)C(=O)O)cc1.[177Lu+3] (stereo not drawn) [[^177Lu]Lu-6S-RedFol-3] 1.1

Values were extracted from paper PMC10486429.
